STUDY_TARGET: Alpha glucosidase (Homo sapiens, UniProt O43451+P10253+P14410+Q2M2H8)
MEASUREMENT_PROTOCOL: Inhibition of alpha-glucosidase (unknown origin) using p-nitrophenyl-alpha-d-glucopyranoside as substrate preincubated for 10 mins followed by substrate addition measured after 30 mins
Assay type: protein assay
READOUT_TYPE: IC50

// below: answered molecules
>  <MOL_SMILES>
O=C(NNC(=S)Nc1ccccc1F)c1ccc(-c2nnc(-c3ccccc3Cl)o2)cc1

>  <IC50>
400 nM

$$$$
>  <MOL_SMILES>
O=C(NNC(=S)Nc1ccc(F)cc1)c1ccc(-c2nnc(-c3ccccc3Cl)o2)cc1

>  <IC50>
400 to 38000 nM

$$$$
>  <MOL_SMILES>
Cc1cccc(NC(=S)NNC(=O)c2ccc(-c3nnc(-c4ccccc4Cl)o3)cc2)c1

>  <IC50>
400 to 38000 nM

$$$$

Task: // query IC50 value for entry CCOC(=O)C1=C(Nc2cccc([N+](=O)[O-])c2)C[C@@H](c2ccc(C)cc2)N(c2cccc([N+](=O)[O-])c2)[C@@H]1c1ccc(C)cc1
Output: 2300 to 29000 nM

Task: Request: CCOC(=O)C1=C(Nc2cccc(F)c2)C[C@@H](c2ccc(Cl)cc2)N(c2cccc(F)c2)[C@@H]1c1ccc(Cl)cc1
Output: 2300 to 29000 nM

Task: Request: CCOC(=O)C1=C(Nc2cccc(Br)c2)C[C@@H](c2ccc(Cl)cc2)N(c2cccc(Br)c2)[C@@H]1c1ccc(Cl)cc1
Output: 2300 nM

Task: Request: O=C(NNC(=S)Nc1ccc(Cl)cc1)c1ccc(-c2nnc(-c3ccccc3Cl)o2)cc1
Output: 400 to 38000 nM

Task: Request: COc1cccc(NC(=S)NNC(=O)c2ccc(-c3nnc(-c4ccccc4Cl)o3)cc2)c1
Output: 400 to 38000 nM

* * *

STUDY_TARGET: Alpha glucosidase (Homo sapiens, UniProt O43451+P10253+P14410+Q2M2H8)
MEASUREMENT_PROTOCOL: Inhibition of alpha-glucosidase (unknown origin) using p-nitrophenyl-alpha-d-glucopyranoside as substrate preincubated for 15 mins followed by substrate addition measured after 30 mins
Assay type: protein assay
# Lookup of reported IC50 keyed by entry

>  <COMPOUND>
Cc1ccc(C(c2c[nH]c3ccc(C(=O)NNS(=O)(=O)c4ccccc4[N+](=O)[O-])cc23)c2c[nH]c3ccc(C(=O)NNS(=O)(=O)c4ccccc4[N+](=O)[O-])cc23)cc1

>  <STUDY_TARGET>
Alpha glucosidase (Homo sapiens, UniProt O43451+P10253+P14410+Q2M2H8)

>  <IC50>
2.1 µM

$$$$

Task: // query IC50 value for entry Cc1ccc(C(c2c[nH]c3ccc(C(=O)NNS(=O)(=O)c4cccc([N+](=O)[O-])c4)cc23)c2c[nH]c3ccc(C(=O)NNS(=O)(=O)c4cccc([N+](=O)[O-])c4)cc23)cc1
Output: 2.1 µM

Task: Request: Cc1ccc(-c2csc(N/N=C3\C(=O)Nc4c(C)cc(C)cc43)n2)cc1
Output: 5.3 to 35 µM

Task: Request: CC(C)Cn1cc(C2(c3cn(CC(C)C)c4ccccc34)C(=O)Nc3ccccc32)c2ccccc21
Output: 5.9 to 145 µM

Task: Request: COc1cc(-c2ccc(F)cc2)ccc1O[C@H](C)Cn1cc(-c2ccc(C(F)(F)F)cc2)nn1
Output: 14 to 218 µM

* * *

STUDY_TARGET: Alpha glucosidase (Homo sapiens, UniProt O43451+P10253+P14410+Q2M2H8)
MEASUREMENT_PROTOCOL: Inhibition of alpha-glucosidase (unknown origin) using p-nitrophenyl-alpha-d-glucopyranoside as substrate preincubated for 15 mins followed by substrate addition measured after 30 mins by spectrophotometric analysis
Type: protein assay
READOUT_TYPE: IC50

// below: answered molecules
>  <MOL_SMILES>
Clc1cc(Cl)cc(Cn2cc(CSc3nc4ccccc4s3)nn2)c1

>  <IC50>
20 to 61 µM

$$$$
>  <MOL_SMILES>
Fc1ccccc1CSc1nc(-c2ccc(Br)cc2)cc(-c2ccc(Br)cc2)n1

>  <IC50>
19 to 38 µM

$$$$
>  <MOL_SMILES>
Fc1cccc(CSc2nc(-c3ccc(Br)cc3)cc(-c3cccc(Br)c3)n2)c1

>  <IC50>
19 to 38 µM

$$$$

Task: // query IC50 value for entry O=C(COc1ccc2ccc(=O)oc2c1)N/N=C1\C(=O)N(Cc2ccccc2F)c2ccc(Cl)cc21
Output: 2.5 µM

Task: Request: Clc1ccc(CSc2nc(-c3ccc(Br)cc3)cc(-c3ccc(Br)cc3)n2)cc1
Output: 19 to 38 µM

Task: Request: Clc1ccc2sc(SCc3cn(Cc4ccccc4Cl)nn3)nc2c1
Output: 20 to 61 µM

Task: Request: Fc1ccc(CSc2nc(-c3ccc(Br)cc3)cc(-c3ccc(Br)cc3)n2)cc1
Output: 19 to 38 µM

* * *

# Lookup of reported IC50 keyed by entry
STUDY_TARGET: Alpha glucosidase (Homo sapiens, UniProt O43451+P10253+P14410+Q2M2H8)
MEASUREMENT_PROTOCOL: Inhibition of alpha-glucosidase (unknown origin) using pNPG as substrate preincubated for 10 mins followed by substrate addition measured after 30 mins
Assay type: protein assay

// below: answered compounds
>  <MOL_SMILES>
O=C(N/N=C/c1ccc(O)c(O)c1)c1cc2ccccc2[nH]1

>  <IC50>
2.3 to 226 µM

$$$$
>  <MOL_SMILES>
CC(=O)Nc1ccc(-n2c(-c3c(-c4ccccc4)[nH]c4ccc(F)cc34)nc(-c3ccccc3)c2-c2ccccc2)cc1

>  <IC50>
8.3 µM

$$$$
>  <MOL_SMILES>
COc1cc(/C=N/NC(=O)c2cc3ccccc3[nH]2)ccc1O

>  <IC50>
2.3 to 226 µM

$$$$
>  <MOL_SMILES>
COc1ccc(/C=N/NC(=O)c2cc3ccccc3[nH]2)cc1O

>  <IC50>
2.3 to 226 µM

$$$$
>  <MOL_SMILES>
Brc1ccc(-n2c(-c3c(-c4cccc(Br)c4)[nH]c4ccccc34)nc(-c3ccccc3)c2-c2ccccc2)cc1

>  <IC50>
8.3 to 98 µM

$$$$
>  <MOL_SMILES>
O=C(N/N=C/c1c(O)cc(O)cc1O)c1cc2ccccc2[nH]1

>  <IC50>
2.3 to 226 µM

$$$$

Task: // query IC50 value for entry O=C(N/N=C/c1ccc(O)cc1)c1cc2ccccc2[nH]1
Output: 2.3 to 226 µM

Task: Request: COc1ccc(-n2c(-c3c(-c4cccc(Br)c4)[nH]c4ccccc34)nc(-c3ccccc3)c2-c2ccccc2)cc1
Output: 8.3 to 98 µM

Task: Request: O=C(N/N=C/c1ccccc1O)c1cc2ccccc2[nH]1
Output: 2.3 to 226 µM

Task: Request: COc1ccc(/C=N/NC(=O)c2cc3ccccc3[nH]2)c(I)c1O
Output: 2.3 to 226 µM

* * *

MEASUREMENT_PROTOCOL: Inhibition of rat intestinal maltase-glucoamylase using p-nitrophenyl alpha-D-glucoside as substrate preincubated for 5 mins followed by substrate addition and measured after 30 mins
READOUT_TYPE: IC50 (nM)
Quick note: give the figure in nM, leave out the unit.

Task: // query IC50 value for entry O=c1oc2ccccc2cc1-c1nn(C(Nc2ccc(Oc3ccc(NC(c4cccc(Br)c4)n4nc(-c5cc6ccccc6oc5=O)oc4=S)cc3)cc2)c2cccc(Br)c2)c(=S)o1 (stereo unspecified)
Output: 40

* * *

STUDY_TARGET: Alpha glucosidase (Homo sapiens, UniProt O43451+P10253+P14410+Q2M2H8)
MEASUREMENT_PROTOCOL: Inhibition of alpha-glucosidase (unknown origin)
Type: protein assay
READOUT_TYPE: IC50

// below: answered compounds
>  <COMPOUND>
Cn1cc(-c2nnc(-c3ccc(C(c4cn(C)c5ccccc45)c4cn(C)c5ccccc45)cc3)o2)c2ccccc21

>  <IC50>
20 to 292 µM

$$$$
>  <COMPOUND>
COc1ccc([C@H](CC(=O)c2ccccc2)c2c[nH]c3ccccc23)cc1

>  <IC50>
4.3 to 43 µM

$$$$
>  <COMPOUND>
Cc1ccc([C@H](CC(=O)c2ccccc2)c2c[nH]c3ccccc23)cc1

>  <IC50>
4.3 to 43 µM

$$$$

Task: // query IC50 value for entry Cc1ccc(C(=O)N/N=C2\C(=O)Nc3ccc(Cl)cc32)cc1
Output: 2.2 to 83 µM

Task: Request: Cc1[nH]c2ccccc2c1-c1nnc(-c2ccc(C(c3c[nH]c4ccc(C#N)cc34)c3c[nH]c4ccc(C#N)cc34)cc2)o1
Output: 20 to 292 µM

Task: Request: CCCCCCCCCCCC(=O)N/N=C1\C(=O)Nc2ccccc21
Output: 2.2 to 83 µM

Task: Request: COc1ccc(Cc2nnc(-c3ccc(Cl)cc3)n2CC(=O)NNC(=S)Nc2ccc(Cl)cc2)cc1
Output: 3.4 µM

Task: Request: O=C1CSC(=O)N1 [THIAZOLIDINEDIONE]
Output: 0.54 to 2.2 µM

Task: Request: Clc1ccc2[nH]cc(C(c3ccc(-c4nnc(-c5c[nH]c6ccccc56)o4)cc3)c3c[nH]c4ccc(Cl)cc34)c2c1
Output: 20 to 292 µM
